test: Circular dichroism (CD) spectroscopy of linear and stapled peptides in water or 40% TFE/water (Example 3)
Assay type: physicochemical
measurement parameters: [θ]222/[θ]208 ratio in water; summary tables 15, 17, 19
Bridges are numbered along the chain shown (N, C = ends).
# reported [θ]222/[θ]208 ratio of ellipticities; entries follow
// return a plain number; no unit text

## Task Consider the substance shown here: Ac-(cyclo-4,8)-NLK[EKIKK]VVKLKDE-NH2 (Ac-NLKEKIKKVVKLKDE-NH2; lactam 4-8; SMILES CC[C@H](C)[C@@H]1NC(=O)[C@H](CCCCN)NC(=O)[C@@H](NC(=O)[C@H](CCCCN)NC(=O)[C@H](CC(C)C)NC(=O)[C@H](CC(N)=O)NC(C)=O)CCC(=O)NCCCC[C@@H](C(=O)N[C@H](C(=O)N[C@H](C(=O)N[C@@H](CCCCN)C(=O)N[C@@H](CC(C)C)C(=O)N[C@@H](CCCCN)C(=O)N[C@@H](CC(=O)O)C(=O)N[C@@H](CCC(=O)O)C(N)=O)C(C)C)C(C)C)NC(=O)[C@H](CCCCN)NC1=O) [Compound 157] What is its recorded [θ]222/[θ]208 ratio of ellipticities?
## Result 0.38

Further cases:
## Task Quick check: [θ]222/[θ]208 ratio of ellipticities of Ac-(cyclo-11-15, cyclo-16-20)-KIKHVVKLKD[ENSQK][ESEVK]KLRSQLVKRIK-NH2 [Compound 267] ?
## Result 0.48

###

test: Circular dichroism (CD) spectroscopy of linear and stapled peptides in water or 40% TFE/water (Example 3)
Assay type: physicochemical
measurement parameters: λ = 208 nm; in water
Bridges are numbered along the chain shown (N, C = ends).
assay metric: [0]208 mean residue ellipticity (deg cm^2 dmol^−1)
Entry rule: numbers only, all in deg cm^2 dmol^−1.

## Task Any idea what [0]208 mean residue ellipticity was measured for Ac-(cyclo-6,10)-VSKLR[EQLVK]RKQN-NH2 (Ac-VSKLREQLVKRKQN-NH2; lactam 6-10; SMILES CC(=O)N[C@H](C(=O)N[C@@H](CO)C(=O)N[C@@H](CCCCN)C(=O)N[C@@H](CC(C)C)C(=O)N[C@@H](CCCNC(=N)N)C(=O)N[C@H]1CCC(=O)NCCCC[C@@H](C(=O)N[C@@H](CCCNC(=N)N)C(=O)N[C@@H](CCCCN)C(=O)N[C@@H](CCC(N)=O)C(=O)N[C@@H](CC(N)=O)C(N)=O)NC(=O)[C@H](C(C)C)NC(=O)[C@H](CC(C)C)NC(=O)[C@H](CCC(N)=O)NC1=O)C(C)C) [Compound 152] ?
## Result -7.90E+03

New cases:
## Task For the substance shown here, Ac-(cyclo-4,8)-VSK[ERSQK]VKRKQN-NH2 (Ac-VSKERSQKVKRKQN-NH2; lactam 4-8; SMILES CC(=O)N[C@H](C(=O)N[C@@H](CO)C(=O)N[C@@H](CCCCN)C(=O)N[C@H]1CCC(=O)NCCCC[C@@H](C(=O)N[C@H](C(=O)N[C@@H](CCCCN)C(=O)N[C@@H](CCCNC(=N)N)C(=O)N[C@@H](CCCCN)C(=O)N[C@@H](CCC(N)=O)C(=O)N[C@@H](CC(N)=O)C(N)=O)C(C)C)NC(=O)[C@H](CCC(N)=O)NC(=O)[C@H](CO)NC(=O)[C@H](CCCNC(=N)N)NC1=O)C(C)C) [Compound 150] , give the reported [0]208 mean residue ellipticity.
## Result -6.30E+03

## Task Sample Ac-(cyclo-7,11)-VSKLRS[ELVKK]KQN-NH2 (Ac-VSKLRSELVKKKQN-NH2; lactam 7-11; SMILES CC(=O)N[C@H](C(=O)N[C@@H](CO)C(=O)N[C@@H](CCCCN)C(=O)N[C@@H](CC(C)C)C(=O)N[C@@H](CCCNC(=N)N)C(=O)N[C@@H](CO)C(=O)N[C@H]1CCC(=O)NCCCC[C@@H](C(=O)N[C@@H](CCCCN)C(=O)N[C@@H](CCC(N)=O)C(=O)N[C@@H](CC(N)=O)C(N)=O)NC(=O)[C@H](CCCCN)NC(=O)[C@H](C(C)C)NC(=O)[C@H](CC(C)C)NC1=O)C(C)C) [Compound 153] — what was its [0]208 mean residue ellipticity?
## Result -6.79E+03

###

test: Circular dichroism (CD) spectroscopy of linear and stapled peptides in water or 40% TFE/water (Example 3)
Format: physicochemical
measurement parameters: 40% TFE/water
Description: CD spectra were obtained on a Jasco J-810 spectropolarimeter and recorded in the range of 180-260 nm. Peptide solutions were prepared with a 0.1M phosphate buffer solution to a concentration of 0.5 mM. The measurements were performed in quartz cuvettes with a path length of 1 mm and a scanning speed of 10-50 nm/min. Five individual data points were averaged by the instrument in order to obtain the reported CD spectrum. The measurements were carried out at 20° C. […]
# Lookup of reported [0]222 mean residue ellipticity at λ=222 nm keyed by entry
Only the number, expressed in deg cm^2 dmol^−1, is required.

Worked cases, answers included:
## Task What does the data say about its [0]222 mean residue ellipticity at λ=222 nm? Entry: Ac-KIKHVVKLKDENSQLKSEVSKLRSQLVKRK-NH2 [Compound 265]
## Result -2.18E04

## Task May I ask what [0]222 mean residue ellipticity at λ=222 nm has been recorded for Ac-NLKQKIKHVVKLKDENSQLKSEVSKLRSQLVKRKQN-NH2 [Compound 275] ?
## Result -2.96E04

Further cases:
## Task Quick one: [0]222 mean residue ellipticity at λ=222 nm of Ac-(cyclo-10-14, cyclo-15-19)-KIKHVVKLK[KENSE][EKSEK]SKLRSQLVKRK-NH2 [Compound 269] ?
## Result -2.14E04

## Task Dear colleague, I am looking for the recorded [0]222 mean residue ellipticity at λ=222 nm of the following substance: Ac-(cyclo-11-15, cyclo-16-20)-KIKHVVKLKD[ENSQK][ESEVK]KLRSQLVKRIK-NH2 [Compound 267]
## Result -2.34E04

###

test: Circular dichroism (CD) spectroscopy of linear and stapled peptides in water or 40% TFE/water (Example 3)
Type: physicochemical
measurement parameters: as repeated in tables 16, 18, 20
Bridges are numbered along the chain shown (N, C = ends).
assay metric: [θ]222/[θ]208 ratio of ellipticities
Form rule: numeric answer, no unit written next to it.

Field: example entries. Status: answers known.
## Task # input substance: Ac-(cyclo-4,8)-VSK[ERSQK]VKRKQN-NH2 (Ac-VSKERSQKVKRKQN-NH2; lactam 4-8; SMILES CC(=O)N[C@H](C(=O)N[C@@H](CO)C(=O)N[C@@H](CCCCN)C(=O)N[C@H]1CCC(=O)NCCCC[C@@H](C(=O)N[C@H](C(=O)N[C@@H](CCCCN)C(=O)N[C@@H](CCCNC(=N)N)C(=O)N[C@@H](CCCCN)C(=O)N[C@@H](CCC(N)=O)C(=O)N[C@@H](CC(N)=O)C(N)=O)C(C)C)NC(=O)[C@H](CCC(N)=O)NC(=O)[C@H](CO)NC(=O)[C@H](CCCNC(=N)N)NC1=O)C(C)C) [Compound 150] ; wanted: its [θ]222/[θ]208 ratio of ellipticities
## Result 0.53

## Task Please give the measured [θ]222/[θ]208 ratio of ellipticities for this substance: Ac-(cyclo-4,8)-NLK[EKIKK]VVKLKDE-NH2 (Ac-NLKEKIKKVVKLKDE-NH2; lactam 4-8; SMILES CC[C@H](C)[C@@H]1NC(=O)[C@H](CCCCN)NC(=O)[C@@H](NC(=O)[C@H](CCCCN)NC(=O)[C@H](CC(C)C)NC(=O)[C@H](CC(N)=O)NC(C)=O)CCC(=O)NCCCC[C@@H](C(=O)N[C@H](C(=O)N[C@H](C(=O)N[C@@H](CCCCN)C(=O)N[C@@H](CC(C)C)C(=O)N[C@@H](CCCCN)C(=O)N[C@@H](CC(=O)O)C(=O)N[C@@H](CCC(=O)O)C(N)=O)C(C)C)C(C)C)NC(=O)[C@H](CCCCN)NC1=O) [Compound 157]
## Result 0.38

## Task Bench note: what [θ]222/[θ]208 ratio of ellipticities did Ac-(cyclo-5,9)-VSKL[ESQLK]KRKQN-NH2 (Ac-VSKLESQLKKRKQN-NH2; lactam 5-9; SMILES CC(=O)N[C@H](C(=O)N[C@@H](CO)C(=O)N[C@@H](CCCCN)C(=O)N[C@@H](CC(C)C)C(=O)N[C@H]1CCC(=O)NCCCC[C@@H](C(=O)N[C@@H](CCCCN)C(=O)N[C@@H](CCCNC(=N)N)C(=O)N[C@@H](CCCCN)C(=O)N[C@@H](CCC(N)=O)C(=O)N[C@@H](CC(N)=O)C(N)=O)NC(=O)[C@H](CC(C)C)NC(=O)[C@H](CCC(N)=O)NC(=O)[C@H](CO)NC1=O)C(C)C) [Compound 151] show?
## Result 0.70

More entries:
## Task Consider the substance Ac-(cyclo-11-15, cyclo-16-20)-KIKHVVKLKD[ENSQK][ESEVK]KLRSQLVKRIK-NH2 [Compound 267] and give its measured [θ]222/[θ]208 ratio of ellipticities.
## Result 0.48

## Task # query: [θ]222/[θ]208 ratio of ellipticities of entry Ac-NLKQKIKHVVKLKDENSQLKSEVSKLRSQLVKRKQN-NH2 [Compound 275]
## Result 0.35

## Task What value of [θ]222/[θ]208 ratio of ellipticities has been reported for the following substance? Ac-(cyclo-6,10)-VSKLR[KQLVE]RKQN-NH2 (Ac-VSKLRKQLVERKQN-NH2; lactam 6-10; SMILES CC(=O)N[C@H](C(=O)N[C@@H](CO)C(=O)N[C@@H](CCCCN)C(=O)N[C@@H](CC(C)C)C(=O)N[C@@H](CCCNC(=N)N)C(=O)N[C@H]1CCCCNC(=O)CC[C@@H](C(=O)N[C@@H](CCCNC(=N)N)C(=O)N[C@@H](CCCCN)C(=O)N[C@@H](CCC(N)=O)C(=O)N[C@@H](CC(N)=O)C(N)=O)NC(=O)[C@H](C(C)C)NC(=O)[C@H](CC(C)C)NC(=O)[C@H](CCC(N)=O)NC1=O)C(C)C) [Compound 155]
## Result 0.37
